Source: the supplement of paper PMC6555819

Tested on: PPARg homodimer (NR concentration 180 nM)
Assay: PBM binding z-score (relative to random genomic background probes); higher = stronger binding; sequences stand for … in GC…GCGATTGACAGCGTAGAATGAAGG
Endpoint Name: PBM binding z-score
Hey, just send me the number, nothing else.

Sequence Input	Endpoint Name	Recorded Value
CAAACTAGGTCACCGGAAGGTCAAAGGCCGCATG	PBM binding z-score	5.53
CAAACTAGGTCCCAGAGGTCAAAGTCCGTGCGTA	PBM binding z-score	2.64
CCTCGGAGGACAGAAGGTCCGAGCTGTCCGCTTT	PBM binding z-score	-0.27
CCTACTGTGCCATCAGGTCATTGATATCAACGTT	PBM binding z-score	2.2
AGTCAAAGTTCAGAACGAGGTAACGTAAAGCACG	PBM binding z-score	1.58
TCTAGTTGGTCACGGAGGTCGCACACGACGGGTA	PBM binding z-score	1.19
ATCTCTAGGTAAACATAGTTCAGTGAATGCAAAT	PBM binding z-score	1.28
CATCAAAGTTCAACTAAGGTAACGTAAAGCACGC	PBM binding z-score	3.92

What value of PBM binding z-score has been recorded for this entry: `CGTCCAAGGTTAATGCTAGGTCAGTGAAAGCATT`
1.1

What value of PBM binding z-score has been recorded for this entry: `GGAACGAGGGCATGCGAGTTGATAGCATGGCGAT`
-0.621

What value of PBM binding z-score has been recorded for this entry: `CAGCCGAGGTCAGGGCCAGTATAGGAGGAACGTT`
2.95

What value of PBM binding z-score has been recorded for this entry: `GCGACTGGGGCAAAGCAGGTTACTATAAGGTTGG`
0.617

What value of PBM binding z-score has been recorded for this entry: `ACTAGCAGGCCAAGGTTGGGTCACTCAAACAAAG`
0.597

What value of PBM binding z-score has been recorded for this entry: `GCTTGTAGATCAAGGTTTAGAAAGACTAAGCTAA`
-0.0341

What value of PBM binding z-score has been recorded for this entry: `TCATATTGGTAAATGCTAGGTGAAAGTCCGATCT`
1.32

What value of PBM binding z-score has been recorded for this entry: `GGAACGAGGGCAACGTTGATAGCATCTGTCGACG`
-0.132

----------
Tested on: VDR homodimer (NR concentration 270 nM)
Test: PBM binding z-score (relative to random genomic background probes); higher = stronger binding; sequences stand for … in GC…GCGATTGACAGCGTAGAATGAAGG
We'd kindly ask you to apply these PBM binding z-score classes: lower band (below 0.5), central band (0.5 to below 2), upper band (2 or more)

Reference set (4 entries):
Sequence Input	Group
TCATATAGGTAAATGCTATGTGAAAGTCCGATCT	lower band
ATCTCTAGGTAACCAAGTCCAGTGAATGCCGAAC	lower band
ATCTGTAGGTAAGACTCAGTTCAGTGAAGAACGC	central band
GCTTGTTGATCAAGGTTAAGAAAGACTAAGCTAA	lower band

Which category fits this record: `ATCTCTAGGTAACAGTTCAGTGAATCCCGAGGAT`
central band

Which category fits this record: `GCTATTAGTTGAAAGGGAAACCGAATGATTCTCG`
lower band

Which category fits this record: `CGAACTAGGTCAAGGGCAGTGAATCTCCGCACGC`
central band

Which category fits this record: `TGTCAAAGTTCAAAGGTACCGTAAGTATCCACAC`
upper band

Which category fits this record: `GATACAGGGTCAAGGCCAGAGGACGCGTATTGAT`
upper band

Which category fits this record: `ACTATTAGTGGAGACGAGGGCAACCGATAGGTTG`
lower band

----------
Test system: PPARg:RXRa DBDmut IVT, anti-RXR (DBD mutation: RXRa K156A/R161A, NR concentration 270 nM, RXRa partner concentration 90 nM)
Assay: PBM binding z-score (relative to random genomic background probes); higher = stronger binding; sequences stand for … in GC…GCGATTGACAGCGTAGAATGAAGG
# PBM binding z-score values compiled below

Some entries whose results are on file:
Sequence Input	PBM binding z-score
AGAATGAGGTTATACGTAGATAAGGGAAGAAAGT	2.89
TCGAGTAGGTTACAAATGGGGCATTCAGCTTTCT	3.56
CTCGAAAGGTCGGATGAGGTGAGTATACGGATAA	0.154
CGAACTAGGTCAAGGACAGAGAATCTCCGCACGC	8.21

Okay, now this sequence:
What value of PBM binding z-score has been recorded for this entry: `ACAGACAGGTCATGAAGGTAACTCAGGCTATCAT`
1.59

----------
# PBM binding z-score values compiled below
Test system: RARb homodimer (NR concentration 270 nM)
Experiment: PBM binding z-score (relative to random genomic background probes); higher = stronger binding; sequences stand for … in GC…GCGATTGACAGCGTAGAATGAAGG
Hey, just send me the number, nothing else.

Sequence Input	PBM binding z-score
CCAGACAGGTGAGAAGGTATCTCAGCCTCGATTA	-0.0686
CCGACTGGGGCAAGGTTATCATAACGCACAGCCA	1.27
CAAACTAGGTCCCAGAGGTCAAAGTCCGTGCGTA	4.35
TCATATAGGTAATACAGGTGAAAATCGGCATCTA	0.328
ATCTCTCGGTAACAAGTTCAGTGAAAGAGAGGAC	1.84
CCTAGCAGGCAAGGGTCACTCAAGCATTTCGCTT	3.46
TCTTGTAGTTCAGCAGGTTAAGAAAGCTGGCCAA	1.53
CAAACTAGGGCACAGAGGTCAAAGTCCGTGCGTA	4.61
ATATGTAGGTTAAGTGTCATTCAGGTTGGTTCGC	2.02
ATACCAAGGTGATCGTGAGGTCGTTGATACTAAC	1.73

What value of PBM binding z-score has been recorded for this entry: `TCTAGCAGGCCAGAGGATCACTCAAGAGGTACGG`
-0.66

What value of PBM binding z-score has been recorded for this entry: `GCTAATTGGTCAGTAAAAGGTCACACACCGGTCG`
5.34

----------
System: THRa:RXRa (NR concentration 90 nM, RXRa partner concentration 90 nM)
Assay: PBM binding z-score (relative to random genomic background probes); higher = stronger binding; sequences stand for … in GC…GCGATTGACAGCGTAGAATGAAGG
Record met whenever PBM binding z-score is at 2 or higher; record not met when lower.

Reference set (5 entries):
Sequence Input	Group
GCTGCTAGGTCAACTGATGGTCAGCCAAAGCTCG	met
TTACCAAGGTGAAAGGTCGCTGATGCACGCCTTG	met
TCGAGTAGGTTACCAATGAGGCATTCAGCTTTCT	not met
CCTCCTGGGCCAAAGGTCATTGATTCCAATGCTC	met
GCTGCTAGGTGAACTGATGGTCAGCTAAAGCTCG	not met

# evaluate next
Is reported PBM binding z-score greater than or equal to 2 here: `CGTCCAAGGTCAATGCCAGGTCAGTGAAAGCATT`
met

----------
System: PPARg:RXRa 270nM:90nM, anti-RXR (NR concentration 270 nM, RXRa partner concentration 90 nM)
Assay: PBM binding z-score (relative to random genomic background probes); higher = stronger binding; sequences stand for … in GC…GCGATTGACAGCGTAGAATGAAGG
# PBM binding z-score values compiled below
Hey, just send me the number, nothing else.

Sequence Input	PBM binding z-score
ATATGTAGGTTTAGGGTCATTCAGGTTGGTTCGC	6.54
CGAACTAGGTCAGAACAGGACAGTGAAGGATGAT	4.45
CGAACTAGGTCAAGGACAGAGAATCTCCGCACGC	6.28

What value of PBM binding z-score has been recorded for this entry: `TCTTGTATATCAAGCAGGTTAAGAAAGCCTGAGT`
1.47

What value of PBM binding z-score has been recorded for this entry: `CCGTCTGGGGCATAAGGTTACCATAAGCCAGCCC`
2.07

What value of PBM binding z-score has been recorded for this entry: `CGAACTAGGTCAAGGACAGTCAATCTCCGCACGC`
6.42

What value of PBM binding z-score has been recorded for this entry: `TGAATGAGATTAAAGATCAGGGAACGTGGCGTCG`
2.19

What value of PBM binding z-score has been recorded for this entry: `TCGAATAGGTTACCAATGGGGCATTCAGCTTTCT`
1.75

What value of PBM binding z-score has been recorded for this entry: `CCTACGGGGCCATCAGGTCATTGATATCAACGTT`
1.88

What value of PBM binding z-score has been recorded for this entry: `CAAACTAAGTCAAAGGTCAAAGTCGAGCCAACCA`
10.3

What value of PBM binding z-score has been recorded for this entry: `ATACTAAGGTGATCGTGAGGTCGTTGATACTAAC`
0.774

What value of PBM binding z-score has been recorded for this entry: `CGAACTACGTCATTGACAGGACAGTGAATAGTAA`
-0.251
